# Tested on: Plasmodium falciparum
# Run Description: Primary screen in NF54 nanoGlo assay, in single point, at 2uM, 72h
# Format: functional, Erythrocyte
# Protocol Conditions: timepoint 72 hour
About 540 (0.36%) of roughly 150,000 compounds showed an effect of 50% or more. Only a selection was taken, and strong results are over-represented in it overall.
Recorded % Inhibition by entry
Quantity Name: % Inhibition (%)

# Compound, Quantity Name, Observed Result
rows = [
    ("CCN1CCC[C@H](Nc2cccc(-n3ccnc3)n2)C1", "% Inhibition", 46),
    ("COCCN1CCC(CN(C)C(=O)c2ccc(-c3cncc(N)c3)cc2)CC1", "% Inhibition", 2),
    ("CCNc1nc(C)cc(Nc2ccc(NC(=O)Nc3ccc(F)cc3F)cc2)n1", "% Inhibition", 96),
    ("Cc1cc(O)c(Cl)cc1-c1cccc2c(N)ccnc12", "% Inhibition", 82),
    ("COCC(O)CN1CCC(NC2CCCNc3ccccc32)CC1 (stereo not drawn)", "% Inhibition", -7),
    ("Cn1ncc(C(F)(F)F)c1CN[C@H]1CCCc2c1[nH]c1ccc(Cl)cc21", "% Inhibition", -15),
    ("CN(CC(=O)N[C@H]1CCCN(c2cnccn2)C1)C1CCNCC1", "% Inhibition", -7),
    ("COc1ccc2nc(C)cc(NCc3cccc(NC(=O)c4ccco4)c3)c2c1", "% Inhibition", 93),
    ("Cc1cc(F)ccc1CNc1ccc(N2CCN(C)CC2)nc1", "% Inhibition", 3),
    ("CCc1ccc(Nc2nc(C(=O)NCCc3c[nH]cn3)nc3ccccc23)cc1", "% Inhibition", 7),
    ("Cc1ccc2[nH]c3c(c2c1)CCCC3NC1CC2CCC1O2 (stereo not drawn)", "% Inhibition", -7),
    ("CCN1CCN([C@H]2CCN(c3nccc4nccnc34)C2)CC1", "% Inhibition", 2),
    ("CCNc1cc(C)nc(NCCNC(=O)Nc2cc(F)cc(F)c2)n1", "% Inhibition", 79),
    ("CCN1CCC[C@@H]1CN(CCN(C)C)C(=O)c1ccc(-c2cncnc2)cc1F", "% Inhibition", 2),
    ("O[C@H]1CCN(Cc2ccccc2CNc2cccc(-n3ccnc3)n2)C1", "% Inhibition", 94),
    ("COc1ccnc(NCCCc2nc(-c3ccncc3)cs2)n1", "% Inhibition", 69),
    ("C[C@@H](CS(C)(=O)=O)N(C)c1ncnc2cccc(F)c12", "% Inhibition", 6),
    ("c1ccc(-c2nc3c(c(NCCNc4ncccn4)n2)CCC3)nc1", "% Inhibition", 41),
    ("CCNc1cc(C)nc(NCCNC(=O)c2cc(-n3cccn3)nc(C)n2)n1", "% Inhibition", -1),
    ("CCn1nc(C(C)C)cc1C(=O)Nc1ccc(CC(=O)NC2CC2)cc1", "% Inhibition", 3),
    ("Cc1cc(O)c(Cl)cc1-c1ccc2nccc(N)c2c1", "% Inhibition", 91),
    ("OC[C@H](CNCc1cc2ccc(F)cc2[nH]1)c1ccccc1Cl", "% Inhibition", 41),
    ("Cc1cc(O)c(Cl)cc1-c1ncnc2[nH]ccc12", "% Inhibition", 1),
]

----------
Recorded % Inhibition by entry
# System: Plasmodium falciparum
# Run Description: Primary screen in NF54 nanoGlo assay, in single point, at 2uM, 72h
# Assay type: functional, Erythrocyte
# Protocol Conditions: timepoint 72 hour
In all, about 150,000 compounds went through this assay and about 540 (0.36%) showed an effect of 50% or more. The sample as a whole holds a higher share of strong results than the screen did.

# Compound, Measure Unit, % Inhibition
measured = [
    ("CN1CCC[C@@H]1CCNc1ncnc2cccc(F)c12", "%", 9),
    ("COCCC(=O)NC1COCC1Cc1ccnc2ccccc12 (stereo not drawn)", "%", 1),
    ("CC(C)Nc1cc(-c2cc(OC(F)(F)F)ccc2O)ncn1", "%", 1),
    ("Cc1cnccc1NCCNCc1nc2ccccc2[nH]1", "%", -2),
    ("Nc1cc(N2CCC(c3nc4cc(F)ccc4[nH]3)CC2)nc(N2CCOCC2)n1", "%", 52),
    ("Cc1csc(=O)n1Cc1nnc(C(C)C)o1", "%", -8),
    ("Oc1ccc(OC(F)(F)F)cc1-c1ccc2nccn2n1", "%", 86),
    ("Cn1nc(C(=O)Nc2cnc(CC3CC3)nc2)cc1C(F)(F)F", "%", 1),
    ("C[C@H]1CN(C2CCOCC2)CCN1C(=O)NCc1cccc(-c2cccnc2)c1", "%", -1),
    ("Cc1ccc(-c2cc(C(=O)NC3CCN(C4CCN(C)CC4)CC3)n[nH]2)cc1C", "%", 95),
    ("c1ccc(-c2ccnc(C3CCN(CC45CNCC4C5)CC3)n2)cc1 (stereo not drawn)", "%", 89),
    ("Cc1cccc(Nc2ccnc(Nc3ccc(N4CCN(C)CC4)cc3)n2)c1", "%", 89),
    ("Cc1ccc(-c2cc(C(=O)N[C@H]3CCCN(C4CCN(C)CC4)C3)n[nH]2)s1", "%", 5),
    ("Cc1cccc2c(-c3ccc(N4CCN(C)CC4)nn3)c[nH]c12", "%", -16),
    ("CCn1cc(-c2cccc(C(=O)N[C@@H](C)CN3CCc4ccccc4C3)c2)cn1", "%", 53),
    ("Cc1noc(-c2ccnc(NC[C@H]3CCN(CC(F)(F)F)C3)c2)n1", "%", 2),
    ("NCCc1cccc(CN2CCC[C@H](CN3CCCCC3)C2)c1", "%", 3),
    ("Nc1cc(N2CCC(N3CCc4ccccc4C3)CC2)nc(N2CCOCC2)n1", "%", 5),
    ("Cc1cnccc1NCCNCc1ccc(OC(C)C)c(Cl)c1", "%", 79),
    ("C[C@](O)(CN1CCC(NCc2ccccc2)CC1)C(F)(F)F", "%", -6),
    ("COc1ccc(-c2ccnc(C3CCN(c4ccnc(C#N)n4)CC3)n2)cc1", "%", -1),
    ("CCC(=O)N1CC[C@H](Nc2cc(C)nc3ccccc23)C1", "%", -8),
    ("CN1CCC(N2CCC(NC(=O)c3ccncn3)CC2)CC1", "%", -17),
]
